Tested on: NOTCH1
runDescription: 3' UTR reporter interaction score (median-centred robust z-score of log2 firefly/Renilla activity); higher = less repression of the 3' UTR reporter
condition: HEK293T; 48 h
experimentalReadout: 3' UTR reporter interaction score
I'd appreciate a reply containing only the number, no unit.

Example results:
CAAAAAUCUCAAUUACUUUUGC: -0.966
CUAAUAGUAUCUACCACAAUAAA: 0.264
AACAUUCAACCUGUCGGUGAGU: 0.774
GGGCGCCUGUGAUCCCAAC: -0.381
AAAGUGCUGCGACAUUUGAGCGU: 1.03

Record summary for `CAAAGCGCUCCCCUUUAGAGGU` : reported 3' UTR reporter interaction score = -0.101

Lookup result for `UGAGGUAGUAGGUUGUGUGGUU` ; measured 3' UTR reporter interaction score: -0.305

The sequence `UGGUAGACUAUGGAACGUA` showed 3' UTR reporter interaction score equal to 0.639

Reported 3' UTR reporter interaction score for `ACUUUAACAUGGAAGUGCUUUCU` was -0.363

Please fill in: 3' UTR reporter interaction score reported for `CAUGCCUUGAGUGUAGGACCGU` = -0.883

GET /value?item= `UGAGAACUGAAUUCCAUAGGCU` &field=3' UTR reporter interaction score returns -0.287

Record `UUUGGCAAUGGUAGAACUCACA` , field 3' UTR reporter interaction score: -0.441

* * *

System: TP53
runDescription: 3' UTR reporter interaction score (median-centred robust z-score of log2 firefly/Renilla activity); higher = less repression of the 3' UTR reporter
condition: HEK293T; 48 h
# binarize 3' UTR reporter interaction score: threshold -0.3 inclusive, high side fulfilled, low side not fulfilled

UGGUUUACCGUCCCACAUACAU: not fulfilled
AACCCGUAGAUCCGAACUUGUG: fulfilled
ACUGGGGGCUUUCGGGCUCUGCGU: fulfilled
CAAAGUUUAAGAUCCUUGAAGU: not fulfilled

Req: 3' UTR reporter interaction score >= -0.3 for `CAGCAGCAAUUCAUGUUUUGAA` ?
Resp: fulfilled

Req: Identify whether the reported 3' UTR reporter interaction score of the following sequence is -0.3 or greater: `UGGGCGUAUCUGUAUGCUA`
Resp: fulfilled

Req: Identify whether the reported 3' UTR reporter interaction score of the following sequence is -0.3 or greater: `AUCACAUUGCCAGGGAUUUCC`
Resp: not fulfilled

* * *

Tested on: EZH2
runDescription: 3' UTR reporter interaction score (median-centred robust z-score of log2 firefly/Renilla activity); higher = less repression of the 3' UTR reporter
condition: HEK293T; 48 h
# 3' UTR reporter interaction score per record follows
Could you respond with only the numeric value?

ACAGCAGGCACAGACAGGCAG: -1.08

Data point: `CAUAAAGUAGAAAGCACUAC` ; 3' UTR reporter interaction score = -0.0463

Record summary for `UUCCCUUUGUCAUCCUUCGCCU` : reported 3' UTR reporter interaction score = 0.0327

The sequence listed as `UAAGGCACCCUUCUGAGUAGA` has a reported 3' UTR reporter interaction score of -2.69

Entry `AUCGUGCAUCCCUUUAGAGUGUU` — recorded 3' UTR reporter interaction score = 0.461

Data point: `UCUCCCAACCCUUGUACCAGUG` ; 3' UTR reporter interaction score = 0.195

Measured 3' UTR reporter interaction score, `GUGCCGCCAUCUUUUGAGUGU` : 1.03

Lab note: measured 3' UTR reporter interaction score of `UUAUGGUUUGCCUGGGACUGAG` was 0.163

Data point: `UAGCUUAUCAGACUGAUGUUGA` ; 3' UTR reporter interaction score = 0.437

Reported 3' UTR reporter interaction score ( `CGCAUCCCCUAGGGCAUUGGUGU` ) = 0.639
